System: MS2 coat protein
Assay: apparent KD of MS2 coat protein; designed switch direction (-1 OFF switch, 1 ON switch): -1; higher = weaker reporter binding
Conditions: input ligand: microRNA oligo, concentration not stated
PARAMETER: apparent KD of MS2 coat protein (µM)
Reply numerically in µM, unit not repeated.

INPUT SEQUENCE	UNIT SPEC	MEAS VALUE
UACAUGAGGAUCACCCAUGUUUUGUCGUGUAUGGUACCCGUUUAGGAUAUCGUGUUAUUGGACCGCGAGAAGGAGAGUAUCAAU [Excl-NG3-LRO04] (Eterna round: R96, puzzle: Exclusion NG 3)	µM	0.0228
UUGUUACGAUUAGGAUAUUAUUGAUUGGACAGUAUGAUUUACAUGAGGAUCACCCAUGUUACUUUUAAGAAGGAAUCGUAUUAU [JR_ExcNG2_Sub090] (Eterna round: R96, puzzle: Exclusion NG 2)	µM	0.0148
GCAGCUGCUCUAGGAUAUAUUUUAGCACAUGAGGAUCACCCAUGUGGGACCACAACAGCGCAAGAAUAGAAGGAGACAGCAGUA [Eternabot solution 32] (Eterna round: R96, puzzle: Exclusion NG 2)	µM	0.125
AAGAGGAUUACAGGAUAUGAAGCUAAAACGGCGUUAGAAGGGUAUACAGAGUUACAUGAGGAUCACCCAUGUUGUGAUUUCUAA [AK ExNG1-V2-4.2] (Eterna round: R96, puzzle: Exclusion NG 1)	µM	0.0384
UUGUUGUAUGUAGGAUAUGCAUGUUAUUAUUAUGCAGAAGGACAUGAGGAUCACCCAUGUAUAUUAUUAUUAUAUGUUAUAUAU [Title] (Eterna round: R96, puzzle: Exclusion NG 1)	µM	0.0179
CCUACUCAGCGAGGAUAUGUAACGGUGACUAGGGACGUCUACAUGAGGAUCACCCAUGUGACUAAGCAGAAGGCGCAGAGCCCA [Learve] (Eterna round: R96, puzzle: Exclusion NG 2)	µM	0.0331
GGUACUAUCACCUGAGUGGUAGUGCAACAAGCUUGUGAUACAUGAGGAUCACCCAUGUCCUCAUUUGCUCGUCUUAU [JL-sv3-2.25 JL mod] (Eterna round: R96, puzzle: Sensor v3, turn-off variant 2)	µM	0.858
ACAAGCUUAAAGGUGAAUAACAUGAGGAUCACCCAUGUUCGUCUUAUAAAAAUAAAAAUAAAAAAUAAAAAAUAAAA [Sensor V2: 62] (Eterna round: R96, puzzle: Sensor v2, turn-off variant)	µM	0.0872

Can you look up the measured apparent KD of MS2 coat protein of CUCCGGCGUGUAGGAUAUGGUUCCGUUUAGGAUCCAGAAGGACAUGAGGAUCACCCAUGUACAUGUCGUCGGUCGUCACCGGGC [salish99_ExNG1_r04_212] (Eterna round: R96, puzzle: Exclusion NG 1) for me?
0.0245

---

Reported apparent KD of MS2 coat protein values for a set of sequences
Test system: MS2 coat protein
Assay: apparent KD of MS2 coat protein; higher = weaker reporter binding
Details: Eterna round: R107; input ligand: theophylline 20 uM
Value expressed in nM; do not type the unit.

Examples with their reported apparent KD of MS2 coat protein follow.
INPUT SEQUENCE	PARAMETER	MEAS VALUE
CAAAAUGCGGCGGCCGCCACUCAGCUCCGUGUGGUUGGUCAUCUUAACAUGAGGAUCACCCAUGUGAGGACCGGGCCAGCGAGUG [theeternabot_exclusion_MS2_Trp_B_38]	apparent KD of MS2 coat protein	19.6
AACGAGUGGCGGCCAUUGGGUGAUCCUCUACGAGGACCGGUACGGCCGCCACUCGAUAACAUGAGGAUCACCCAUGUGCCGAUAA [|T'-M'-Trp-Ms2|_Design10b]	apparent KD of MS2 coat protein	164

// next entry
I'd like to know its apparent KD of MS2 coat protein. The sequence in question is UAUAUUGUGAUGGAUACCAGCAGAGAAAACGUUUAUCCUAACAUGAGGAUCACCCAUGUAUGCCCUUGGCAGCUGUUGUGGUAUA [8.P]
55.3

---

Test system: MS2 coat protein
Experiment: apparent KD of MS2 coat protein; designed switch direction (-1 OFF switch, 1 ON switch): -1; higher = weaker reporter binding
Conditions: Eterna round: R95; input ligand: none
PARAMETER: apparent KD of MS2 coat protein (nM)
Return type: number; implicit unit nM.

Examples with their reported apparent KD of MS2 coat protein follow.
INPUT SEQUENCE	PARAMETER	UNIT SPEC	MEAS VALUE
CUUAGCCUAAAAUCACGCAAGCCUUUUGCUUGUCUUAAGACAUGAGGAUCACCCAUGUCCGGGCUGAACUUAUGGAA [Geanon] (puzzle: Sensor v3, turn-off variant 2)	apparent KD of MS2 coat protein	nM	16.6
GGAAGACAUGAGGAUCACCCAUGUAAGGAUAUCGAAGGUAUGAGAGGAAAGAGGUUAACGAGAAGGUACAGGUG [JR_Exclu1_Sub099] (puzzle: Exclusion 1)	apparent KD of MS2 coat protein	nM	102
AAUAACAAGCCGAUCCUAAACAUGAGGAUCACCCAUGUGCUCGUCUUGUAAAGUACUAUCACGAAAGUGAUAGUACA (puzzle: Sensor v3, turn-off variant 1)	apparent KD of MS2 coat protein	nM	14.5

So what does the record say about apparent KD of MS2 coat protein for UCAAGUUUUUUGUUUUUUAACAUGAGGAUCACCCAUGUAUUUUUAUAGUAUGUGUGAAUAAGAUCUCUUUGUCUUAU [JR_SV3TOV1_Sub098] (puzzle: Sensor v3, turn-off variant 1) ?
49.5

Now the sequence AAGAAACAUGAGGAUCACCCAUGUGAGGAUAUGAUUAAGAAAAGAAAAGAAAGAAGACUCAGAAGGCACAAAGG [salish99-ex1_r3_069] (puzzle: Exclusion 1)
45.5

---

Test system: MS2 coat protein
Test: apparent KD of MS2 coat protein; designed switch direction (-1 OFF switch, 1 ON switch): 1; higher = weaker reporter binding
Details: Eterna round: R95; input ligand: none
Below, each of the sequences is paired with its reported apparent KD of MS2 coat protein value.
Report the figure in nM without appending any unit label.

Example sequences with recorded apparent KD of MS2 coat protein:
INPUT SEQUENCE	UNIT SPEC	apparent KD of MS2 coat protein
UAGAAACAUGAGGAUCACCCAUGUGUCAAAGACAUAGGAUAUCGUAACCGGCGCCGAAUACGAGAAGGGUGGUAAA [Arares] (puzzle: Same State 1)	nM	166
GUAAAACAUGAGGAUCACCCAUGUAAUAAUAUGGGAGGAUAUCAGAUUUAAUUUAAUUUAUGAGAAGGCCUAAAUG [Mat - Same State 1 - Mod of Eli - D59] (puzzle: Same State 1)	nM	427
GGUCCAGCCUGAGCUGGACAAAAGCAUGUACAUGAGGAUCACCCAUGUCAUGUACAAGCUUUUUGCUCGUCUAAAUG [Mat - hsa-mir-208a - 93] (puzzle: Sensor for hsa-mir-208a)	nM	758
GUGCGGGUGCCACAGGAUAUACGUGGAUCGACAUGAGGAUCACCCAUGUAUAUCCUAAUAAUUGCGUAGAAGGGUGGUCAGCCGU [Enbebiqu] (puzzle: Same State 2)	nM	340

Here's the next entry for you.
// returns reported apparent KD of MS2 coat protein for input UAGAAACAUGAGGAUCACCCAUGUGUCAAAGACAUAGGAUAUCGUGACCGGCGCCGGACACGAGAAGGGUGGUAAA [Quingees] (puzzle: Same State 1)
386

---

System: K4 kissing-loop RNA reporter;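 note: bound reporter read as fluorescence of individual clusters on recovered sequencing chips by microscopy, with normalized cluster intensities fitted with a binding model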
Assay: apparent KD of K4 kissing-loop reporter; higher = weaker reporter binding
Details: Eterna round: R107; input ligand: tryptophan 2.4 mM
I would appreciate it if you labelled entries True when apparent KD of K4 kissing-loop reporter is 100 nM or higher, otherwise False.

Use these answered entries as a reference point.
INPUT SEQUENCE	CLASSIFICATION
CUGGGUUGACGAAAAGUCAACAAAAGAGAAGGAGCGCACGAAAGUGCAGGUAGGUCGCUCAUCCAGUGAUGUUGGAUCAUCCAGA [#SwitchBubble 16 #K4Late]	True
AAGUGAUGUUGUAGUGAUGUUGUGAUGUUGCAGGAUAUAUAGUGAUGUAGAAGGGUAAGUACUUAUUUUUUUUUUGAGUGAUGUU [vcbczrmullin]	False
AAUCAAUACAGAAGGAGCGUGACAAUUACUAUUGAAUUAGGUGCUAGUGAUGUUAGCAUUACACAGGUAGGUCGCUGUACAUUUA [JR_SSArginiB_Sub011]	False
UGUAUGGACUGAAGGAGCGCUAGGAAAGUGAGUGAUGUUCAUAUAAAAGUAUAAAGGGUUUGGCAGGUAGGUCGCAGUCCAUACU [KL-SSArg B5]	True
UGACUGGACUGAAGGAGCGAGCGAGACAAAGUCUCGAAAAUUCAGUGAUGUUGAAAUAUAACUCAGGUAGGUCGCAGUCUAGUCU [ArgBS 4 #SwitchBubble #StaticStem]	True

Kindly review the next sequence as well.
Check if apparent KD of K4 kissing-loop reporter >= 100 nM (inclusive). Item: UAUAUAUGAUGUGAUACCAGUGAAGAGCCAGUGAUGUUGGUAGAACUGGUAUAUAAAUAACACCCUUGGCAGCACAAUCACGUAU [whbob_Ex_Theo_B_sa97]
True
